R4 (percent of red blood cells in the positive gate R4) values, listed per item
# system: T1, human CD47 on cells (human, UniProt Q08722 19-323)
# T1 construct: also called KT14 (target name); leukocyte surface antigen CD47
# assay: flow cytometry on human red blood cells (h408 RBC), Alexa Fluor 647 channel
endpoint_name: R4 (percent of red blood cells in the positive gate R4) (%)

{"columns": ["binder", "units_symbol", "measured_value"],
 "data": [
  ["KBisP1.1 bispecific antibody (15D3 IgG1 DD/5F9 IgG1 KK/MRK16) (bispecific antibody, V domains shown, 15D3 VH on human IgG1 with K392D and K409D (DD), 5F9 VH on human IgG1 with E356K and D399K (KK), EU numbering; also called KNJYBisP1.1; KBis1.1) VH 1: EVKVVESGGVLVRPGGSLKLSCAASGFTFSRYTMSWVRQTPEKRLEWVATISSGGGNTYYPDSVKGRFTVSRDNAMSSLYLQMSSLRSEDTALYYCARYGAGDAWFAYWGQGTLVTVSA VH 2: QVQLVQSGAEVKKPGASVKVSCKASGYTFTNYNMHWVRQAPGQRLEWMGTIYPGNDDTSYNQKFKDRVTITADTSASTAYMELSSLRSEDTAVYYCARGGYRAMDYWGQGTLVTVSS VL: DVLMTQTPVSLSVSLGDQASISCRSSQSIVHSTGNTYLEWYLQKPGQSPKLLIYKISNRFSGVPDRFSGSGSGTDFTLKISRVEAEDLGVYYCFQASHFPRTFGGGTKLEIK", "%", 0.609],
  ["anti-MDR1 antibody MRK16 (recombinant, human IgG1/Kappa) (antibody, V domains shown) VH: EVILVESGGGLVKPGGSLKLSCAASGFTFSSYTMSWVRQTPEKRLEWVATISSGGGNTYYPDSVKGRFTISRDNAKNNLYLQMSSLRSEDTALYYCARYYRYEAWFASWGQGTLVTVSA VL: DVLMTQTPVSLSVSLGDQASISCRSSQSIVHSTGNTYLEWYLQKPGQSPKLLIYKISNRFSGVPDRFSGSGSGTDFTLKISRVEAEDLGVYYCFQASHFPRTFGGGTKLEIK", "%", 0.867],
  ["5F9/MRK16 (anti-CD47 antibody with two 5F9 heavy chains and two MRK16 light chains) (antibody, human IgG1, V domains shown, Human IgG1 / kappa constant regions; also called KT14/MRK16 monoclonal; KT14_MRK16) VH: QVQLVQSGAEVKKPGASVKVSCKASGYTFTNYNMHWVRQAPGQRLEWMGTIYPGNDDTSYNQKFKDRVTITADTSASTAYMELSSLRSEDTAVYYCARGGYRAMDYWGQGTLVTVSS VL: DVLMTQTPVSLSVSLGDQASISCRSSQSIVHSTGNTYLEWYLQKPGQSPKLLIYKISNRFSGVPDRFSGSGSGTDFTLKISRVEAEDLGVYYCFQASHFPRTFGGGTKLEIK", "%", 0.708],
  ["anti-CD47 antibody 5F9 (antibody, human IgG1, V domains shown, Variable regions cloned on human IgG1 / human kappa constant regions; also called 5F9/5F9; KT14) VH: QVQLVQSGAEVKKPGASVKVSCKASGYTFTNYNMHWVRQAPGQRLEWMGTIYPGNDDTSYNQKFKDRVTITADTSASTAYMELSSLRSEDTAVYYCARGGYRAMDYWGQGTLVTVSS VL: DIVMTQSPLSLPVTPGEPASISCRSSQSIVYSNGNTYLGWYLQKPGQSPQLLIYKVSNRFSGVPDRFSGSGSGTDFTLKISRVEADVGVYYCFQGSHVPYTFGQGTKLEIK", "%", 99.9]
]}

Data provenance is patent US20220204627A1.
